Tested on: Rh18 complex spheroid viability, percent test/control
experimental.protocol: Anticancer human tumor Rh18 cell line growth inhibition [Asc];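 further: spheroids exposed to compound for 7 days; 100% = DMSO vehicle control wells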
applied.conditions: second compound 0.949 µM; first compound 0.1 µM; stronger effect = lower value
metric.name: viability, T/C (%)
Could you give me the number in %? Just the number is fine.

Some solved cases for reference:
compound	study.target	unit.annotation	viability, T/C
CNC(C)C(=O)NC1CN(S(=O)(=O)c2cccc(S(=O)(=O)N3CCC4CCC(C(=O)NC(c5ccccc5)c5ccccc5)N4C(=O)C(NC(=O)C(C)NC)C3)c2)CCC2CCC(C(=O)NC(c3ccccc3)c3ccccc3)N2C1=O (centres undefined) + CCN1C(C(=O)NC23CCC(C(=O)O)(CC2)CC3)C(c2cccc(Cl)c2F)C2(C(=O)Nc3cc(Cl)ccc32)C12CCCCC2	Rh18 complex spheroid viability, percent test/control	%	9.19
C=CC(=O)N1CCN(c2nc(=O)n(-c3c(C)ccnc3C(C)C)c3nc(-c4c(O)cccc4F)c(F)cc23)C(C)C1 (centres undefined) + CCN1C(C(=O)NC23CCC(C(=O)O)(CC2)CC3)C(c2cccc(Cl)c2F)C2(C(=O)Nc3cc(Cl)ccc32)C12CCCCC2	Rh18 complex spheroid viability, percent test/control	%	9.94
O=C(c1cc(Cc2n[nH]c(=O)c3ccccc23)ccc1F)N1CCN(C(=O)C2CC2)CC1 + CCN1C(C(=O)NC23CCC(C(=O)O)(CC2)CC3)C(c2cccc(Cl)c2F)C2(C(=O)Nc3cc(Cl)ccc32)C12CCCCC2	Rh18 complex spheroid viability, percent test/control	%	11.3

# viability, T/C (compound: O=C(c1ccc(F)c(F)c1Nc1ccc(I)cc1F)N1CC(O)([C@@H]2CCCCN2)C1 + CCN1C(C(=O)NC23CCC(C(=O)O)(CC2)CC3)C(c2cccc(Cl)c2F)C2(C(=O)Nc3cc(Cl)ccc32)C12CCCCC2 ) is 5.03
